Where do these numbers come from? They come from patent US20240239878A1.

Molecular target: T1, human DLL3 on SHP-77 cells (human, UniProt Q9NYJ7 27-618)
T1 construct: also called DLL3-expressing cells (SHP-77)
T1 sequence: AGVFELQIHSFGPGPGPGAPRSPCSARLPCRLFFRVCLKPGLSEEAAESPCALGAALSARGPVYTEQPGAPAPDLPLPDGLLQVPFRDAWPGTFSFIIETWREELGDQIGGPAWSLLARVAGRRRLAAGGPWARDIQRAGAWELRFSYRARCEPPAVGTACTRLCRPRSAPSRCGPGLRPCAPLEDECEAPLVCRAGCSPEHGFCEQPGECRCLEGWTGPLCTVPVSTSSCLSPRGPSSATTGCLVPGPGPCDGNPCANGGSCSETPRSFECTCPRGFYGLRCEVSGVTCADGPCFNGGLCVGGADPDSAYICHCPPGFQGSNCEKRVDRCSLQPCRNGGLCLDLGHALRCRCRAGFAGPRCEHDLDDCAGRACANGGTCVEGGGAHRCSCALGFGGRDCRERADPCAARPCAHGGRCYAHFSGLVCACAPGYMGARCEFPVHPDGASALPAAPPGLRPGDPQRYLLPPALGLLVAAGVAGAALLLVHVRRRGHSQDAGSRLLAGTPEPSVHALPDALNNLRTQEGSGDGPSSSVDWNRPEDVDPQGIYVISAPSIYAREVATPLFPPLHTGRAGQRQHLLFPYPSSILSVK
Test: flow cytometry, SHP-77 cells
Procedure: SHP-77 and HEK293-cyno DLL3 cells were cultured. The culture medium for SHP-77 cells were RPMI1640+10% FBS, and the culture medium for HEK293 cyno DLL3 cells were DMEM+10% FBS+200 μg/ml Hygromycin. The cells were cultured in a T75 cell culture flask at a 37° C. 5% CO₂ incubator. […] The digested cells were centrifuged at 1000 rpm for 5 min at room temperature. […] The cells were counted and adjusted to a cell density of 1E6/m. […] The mean fluorescence intensity of the PE channels was measured by flow cytometry. […]
Value Type: EC50 (nM)
Your answer should be a plain number; it is taken to be in nM.

The examples below pair each entry with its known result.
[[record]]
binder = "DLL3-26 camelid-derived anti-DLL3 chimeric antibody (antibody, human IgG1, V domains shown) VH: QVQLVESGGGSVQAGGSLRLSCAASGDIYSSSYVGWFRQAPGKEREGVAIIYTSGDSTYYANSVKGRFTISQDKAKKTLYLQMNSLKPEDTAMYYCAARFAIDNSNYWGQGTQVTVSS"
numeric_readout = 0.499

[[record]]
binder = "DLL3-122 camelid-derived anti-DLL3 chimeric antibody (antibody, human IgG1, V domains shown) VH: QVQLVESGGGSVQAGGSLRLSCTASGDTYRSYCMGWFRKAPGKEREGVADIVSDGSTSYADSVKGRFTISKDNAKNTLYLQMNSLKPEDTAMYYCAVDRGGSGGYCYTGRYDYWGQGTQVTVSS"
numeric_readout = 0.478

[[record]]
binder = "hDLL3-276 camelid-derived humanized anti-DLL3 antibody (antibody, V domains shown) VH: QVQLVESGGGVVQPGGSLRLSCAASGSTASTTYMGWFRQAPGKGREGVAIIYTARDNPWYADSVKGRFTISRDNSKNTLYLQMNSLRAEDTAVYYCAATLANPTRTAWGQGTLVTVSS"
numeric_readout = 0.389


Now consider the entry below.
INPUT: Identify the reported EC50 for the following entry. hDLL3-12-2 camelid-derived humanized anti-DLL3 antibody (antibody, V domains shown) VH: QVQLVESGGGVVQPGRSLRLSCAASGFAFSSYDMHWVRQAPGKDFEWVSSISRDGRGPRYADSVKGRFTISRDNSKNTLYLQMNSLRAEDTAVYYCSKGYPIMGGTTQGTLVTVSS
OUTPUT: 0.081
